Listed here are molecules together with their documented pEC50.
TARGET: Peroxisome proliferator-activated receptor gamma (Homo sapiens, UniProt P37231)
Sequence (P37231 whole entry): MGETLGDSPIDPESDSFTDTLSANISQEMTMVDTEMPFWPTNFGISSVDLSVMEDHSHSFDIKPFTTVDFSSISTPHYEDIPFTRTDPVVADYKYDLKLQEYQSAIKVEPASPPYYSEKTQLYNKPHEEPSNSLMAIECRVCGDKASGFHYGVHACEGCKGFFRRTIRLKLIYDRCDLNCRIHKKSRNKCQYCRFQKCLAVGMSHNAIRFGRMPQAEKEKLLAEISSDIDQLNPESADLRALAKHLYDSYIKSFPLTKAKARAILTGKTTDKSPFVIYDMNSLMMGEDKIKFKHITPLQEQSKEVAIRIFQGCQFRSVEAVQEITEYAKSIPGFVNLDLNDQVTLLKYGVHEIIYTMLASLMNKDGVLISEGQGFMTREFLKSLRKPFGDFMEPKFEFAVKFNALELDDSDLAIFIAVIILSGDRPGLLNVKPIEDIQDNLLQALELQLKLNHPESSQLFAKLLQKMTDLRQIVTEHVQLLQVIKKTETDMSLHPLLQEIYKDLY
TEST: Agonist activity at human PPAR-gamma expressed in african green monkey CV-1 cells after 24 hrs by luciferase reporter gene assay
pEC50: −log10 of the molar value.

# example entries with known answers
>  <MOLECULE>
Cc1cc([Se]Cc2sc(-c3ccc(C(F)(F)F)cc3)nc2C)ccc1OC(C)(C)C(=O)O

>  <pEC50>
7.00

$$$$
>  <MOLECULE>
Cc1cc([Se]Cc2sc(-c3ccc(C(F)(F)F)cc3)nc2C)ccc1OC(C)C(=O)O (stereo not drawn)

>  <pEC50>
< 6.00

$$$$
>  <MOLECULE>
Cc1cc([Se]Cc2sc(-c3ccc(C(F)(F)F)cc3)nc2C)ccc1OCC(=O)O

>  <pEC50>
< 6.00

$$$$
>  <MOLECULE>
Cc1cc([Se]Cc2sc(-c3ccc(C(F)(F)F)c(F)c3)nc2C)ccc1OC(C)(C)C(=O)O

>  <pEC50>
6.54

$$$$
>  <MOLECULE>
CCC(Oc1ccc([Se]Cc2sc(-c3ccc(C(F)(F)F)c(F)c3)nc2C)cc1C)C(=O)O (stereo not drawn)

>  <pEC50>
6.57

$$$$
>  <MOLECULE>
CCC(Oc1ccc([Se]Cc2sc(-c3ccc(C(F)(F)F)cc3)nc2C)cc1C)C(=O)O (stereo not drawn)

>  <pEC50>
< 6.00

$$$$

What does the record list as pEC50 for Cc1cc([Se]Cc2sc(-c3ccc(C(F)(F)F)c(F)c3)nc2C)ccc1OC(C)C(=O)O (stereo not drawn) ? < 6.00

Another molecule to look at: Cc1cc([Se]Cc2sc(-c3ccc(C(F)(F)F)c(F)c3)nc2C)ccc1OCC(=O)O < 6.00

----------
TARGET: Peroxisome proliferator-activated receptor delta (Mus musculus, UniProt P35396)
Sequence (P35396 whole entry): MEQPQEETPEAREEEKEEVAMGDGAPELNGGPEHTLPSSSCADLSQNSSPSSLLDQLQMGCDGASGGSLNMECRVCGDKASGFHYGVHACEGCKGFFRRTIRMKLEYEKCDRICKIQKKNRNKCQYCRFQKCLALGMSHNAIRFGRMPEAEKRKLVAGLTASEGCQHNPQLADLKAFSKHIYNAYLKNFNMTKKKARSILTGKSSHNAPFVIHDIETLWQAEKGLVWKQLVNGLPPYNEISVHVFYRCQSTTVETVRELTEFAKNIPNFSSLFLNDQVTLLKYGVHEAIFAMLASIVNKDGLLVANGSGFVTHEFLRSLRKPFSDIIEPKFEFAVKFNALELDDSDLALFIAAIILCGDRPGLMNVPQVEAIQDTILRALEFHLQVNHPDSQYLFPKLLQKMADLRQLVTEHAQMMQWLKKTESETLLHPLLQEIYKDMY
TEST: Agonist activity at mouse PPAR-delta expressed in african green monkey CV-1 cells after 24 hrs by luciferase reporter gene assay
Assay type: functional, cell-based
MEASUREMENT TYPE: pEC50
Keep in mind that pEC50 stands for -log10 of concentration in molar terms.

What does the record list as pEC50 for Cc1cc([Se]Cc2sc(-c3ccc(C(F)(F)F)cc3)nc2C)ccc1OCC(=O)O ? 8.64
